The reader will find reported % assay/degs, difference from T = 0 values listed item by item below.
- Type: physicochemical
- Condition label: pH 3.5; 2-8° C.; 168 h

{"columns": ["Molecule", "% assay/degs, difference from T = 0 / %"],
 "data": [
  ["N#C[C@@]1(c2ccc3c(N)ncnn23)O[C@H](CO)[C@@H](O)[C@H]1O [Compound A]", 0.00],
  ["N#C[C@@]1(c2ccc3c(N)ncnn23)O[C@H](COP(=O)(O)Oc2ccccc2)[C@@H](O)[C@H]1O [Compound F]", 0.03],
  ["CCC(CC)COC(=O)[C@H](C)N[P@](=O)(OC[C@H]1O[C@@](C(N)=O)(c2ccc3c(N)ncnn23)[C@H](O)[C@@H]1O)Oc1ccccc1 [Compound G]", 0.00],
  ["CCC(CC)COC(=O)[C@H](C)N[P@](=O)(OC[C@H]1O[C@@](C#N)(c2ccc3c(N)ncnn23)[C@H](O)[C@@H]1O)Oc1ccccc1 [Formula Ia]", 0.6]
]}
